What relative viability was measured for each of the following?
tested on: NCI-H1993; test: relative viability (nuclei count vs DMSO), 5 days (fraction); higher = more cells survive; details: first compound 0.04 µM
One number for each entry.

Compound	Outcome Measure	Measured
C[C@@H]1CN(CC(=O)Nc2ccc3c(c2)Cc2cccc(-c4cc(=O)cc(N5CCOCC5)o4)c2S3)C[C@H](C)O1 + Nc1ncn([C@H]2C[C@H](O)[C@@H](CO)O2)c(=O)n1 [Decitabine] (partner 2 µM)	relative viability	0.701
C[C@@H]1CN(CC(=O)Nc2ccc3c(c2)Cc2cccc(-c4cc(=O)cc(N5CCOCC5)o4)c2S3)C[C@H](C)O1 + N=C(N)NC(=N)NCCc1ccccc1 [Phenformin] (partner 250 µM)	relative viability	0.532
C[C@@H]1CN(CC(=O)Nc2ccc3c(c2)Cc2cccc(-c4cc(=O)cc(N5CCOCC5)o4)c2S3)C[C@H](C)O1 + CS(=O)(=O)N1CCN(Cc2cc3nc(-c4cccc5[nH]ncc45)nc(N4CCOCC4)c3s2)CC1 [Pictilisib] (partner 1 µM)	relative viability	0.76

Next up:
Need relative viability of C[C@@H]1CN(CC(=O)Nc2ccc3c(c2)Cc2cccc(-c4cc(=O)cc(N5CCOCC5)o4)c2S3)C[C@H](C)O1 + Cc1cc(Nc2cc(N3CCN(C)CC3)nc(Sc3ccc(NC(=O)C4CC4)cc3)n2)n[nH]1 [Tozasertib] (partner 0.1 µM) , thanks. 0.567
